- Tested on: P. aeruginosa PA14
- assay.summary: IC50 assay (OD595, 24 h) against PA14
- Format: cell-based, Pseudomonas aeruginosa
- condition.description: Pseudomonas aeruginosa, preliminary screening for probe design, read-out: IC50 in PA14
measurement.kind: pIC50
Numbers only, as −log10 of the molar value.

- molecule: "CCCCCC[C@H](CCCCC[C@@H](O)C(N)=O)OC(=O)[C@@H]1CC=CN1C(=O)c1ccccc1O [1 (2R,8R), promysalin]"
  pIC50: 7.20

Now examine the next entry.
input: // fetch pIC50 for C#CCNC(=O)[C@H](O)CCCCC[C@@H](CCCCCC)OC(=O)[C@@H]1CC=CN1C(=O)c1ccccc1O [(−)-S4] ; system: P. aeruginosa PA14
output: 6.66

----------
- System: P. aeruginosa PA01
- assay.summary: IC50 assay (OD595, 24 h) against PA01
- Format: cell-based
- condition.description: Pseudomonas aeruginosa, single trial 1, read-out: IC50 PA01 EXPT 1
measurement.kind: IC50 (µM)
Numbers only, in µM.

- compound: "CCCCCC[C@H](CCCCC[C@@H](O)C(N)=O)OC(=O)[C@@H]1CC=CN1C(=O)c1ccccc1O [1 (2R,8R), promysalin]"
  study.system: "P. aeruginosa PA01"
  units.of.measure: "µM"
  IC50: 4.44
- compound: "CCCCCC[C@H](CCCCC[C@@H](O)C(N)=O)OC(=O)[C@@H]1CC(F)=CN1C(=O)c1ccccc1O [compound 9]"
  study.system: "P. aeruginosa PA01"
  units.of.measure: "µM"
  IC50: 8.11
- compound: "CCCCCC[C@H](CCCCC[C@@H](O)C(N)=O)OC(=O)[C@@H]1CC(C)=CN1C(=O)c1ccccc1O [compound 10]"
  study.system: "P. aeruginosa PA01"
  units.of.measure: "µM"
  IC50: 32.3

Record IC50 per entry; entries follow.
1. CCCCCC[C@H](CCCCCCC(N)=O)OC(=O)[C@@H]1CC=CN1C(=O)c1ccccc1O [compound 18]
2. CCCCCC[C@H](CCCCC[C@@H](O)C(N)=O)OC(=O)[C@@H]1CCCN1C(=O)c1ccccc1O [compound 6]
3. CCCCCC[C@H](CCCCC[C@@H](O)C(N)=O)OC(=O)[C@@H]1CC=CN1C(=O)c1ccccc1OC [compound 11]
4. CCCCCC[C@H](CCCCC[C@@H](OC)C(N)=O)OC(=O)[C@@H]1CC=CN1C(=O)c1ccccc1O [compound 19]

output:
[4.78, 113, 59.3, 29.2]

input: State its IC50 for this compound: CCCCCC[C@H](C/C=C/CC[C@@H](O)C(N)=O)OC(=O)[C@@H]1CC=CN1C(=O)c1ccccc1O [compound 21]
output: 10.1

----------
- Tested on: P. aeruginosa strains PAO1 and PA14
- assay.summary: Inhibitory activity against P. aeruginosa, strain not separated in text
- Type: cell-based, Pseudomonas aeruginosa
- condition.description: Pseudomonas aeruginosa; PAO1 and PA14; read-out: IC50 / inactive up to concentration
pIC50: −log10 of the molar value.
Please go through the items and note down their pIC50.

- compound: "COC(=O)[C@@H]1CC=CN1C(=O)c1ccccc1O [compound 5]"
  pIC50: "< 3.60"

input: Item CCCCCC[C@@H](O)CCCCC[C@@H](O)C(N)=O [compound 4, (2R,8R)-2,8-dihydroxytetradecanamide] : provide pIC50
output: < 3.60
